- Tested on: biotinyl-Ile-oxazolone
- experimental details: self-aminoacylation, catalytic enhancement (BIO) (fold over background); higher = more active; k-Seq, kA / k0A0; sequences stand for … in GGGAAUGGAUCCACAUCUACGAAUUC…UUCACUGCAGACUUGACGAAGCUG
Fewer inactive variants are shown than the library holds.

construct sequence	self-aminoacylation
CCACACUACAAGCAAUCGGUG [Fam1B.1 aminoacylation ribozyme variant]	3.62
GUUCACCUAGGUCAUCGGGUU [Fam2.2 aminoacylation ribozyme variant]	7.61
AAGUUUGAUAAUCGUCGCAAG [Fam3.1 aminoacylation ribozyme variant]	1.54
CCACACUUCAAACAUUCGGUC [Fam1B.1 aminoacylation ribozyme variant]	1.49
AUUCACGUAGGUUAUCGGGUG [Fam2.2 aminoacylation ribozyme variant]	3.34
AUUCACCUUGGUCAUAGGGUG [Fam2.2 aminoacylation ribozyme variant]	0.995
AUUCACCUAGGUUAUCGGCUG [Fam2.2 aminoacylation ribozyme variant]	1.45
AUUACCCUGGUCAUAGAGUUA [Fam2.1 aminoacylation ribozyme variant]	1.25
AUUCAACUAGGUCACCGGGUG [Fam2.2 aminoacylation ribozyme variant]	4.11
CUAUUUCAAACAAACGGUCUG [Fam1A.1 aminoacylation ribozyme variant]	0.961
CCACUUCAAACAAUCGUUCUG [Fam1A.1 aminoacylation ribozyme variant]	0.582
AUUCUCCUAGAUCAUCGGGUG [Fam2.2 aminoacylation ribozyme variant]	3.28
AUUACCUUGGUUAUCGAGUGA [Fam2.1 aminoacylation ribozyme variant]	3.66
GCACACUUCAAGCAUUCGGUC [Fam1B.1 aminoacylation ribozyme variant]	2.57
AGUCACCUAGGUCAUCGGGUU [Fam2.2 aminoacylation ribozyme variant]	4.28
AAGUUUGCUAAUAGUCGCAAC [Fam3.1 aminoacylation ribozyme variant]	0.972
AUUUCCCUCGUCAUCGAGUGA [Fam2.1 aminoacylation ribozyme variant]	2.5
AUUCGCCUAAGUCAUCGGGUG [Fam2.2 aminoacylation ribozyme variant]	7.83

====

- Test system: biotinyl-Ile-oxazolone
- experimental details: self-aminoacylation, catalytic enhancement (BIO) (fold over background); higher = more active; k-Seq, kA / k0A0; sequences stand for … in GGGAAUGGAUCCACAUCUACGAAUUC…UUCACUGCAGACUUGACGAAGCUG
Fewer inactive variants are shown than the library holds.
Hi, to clarify the labels: met covers self-aminoacylation from 2 upward, not met covers anything below 2.

construct sequence	class assignment
CUACUUCAAACCAUCGGCCUG [Fam1A.1 aminoacylation ribozyme variant]	not met
AAUUUUGGUAAUAGUCGCAAG [Fam3.1 aminoacylation ribozyme variant]	met
CCACACUUCAAGCAAUUGGAC [Fam1B.1 aminoacylation ribozyme variant]	not met
AUUACACUGGACAUCGAGUGA [Fam2.1 aminoacylation ribozyme variant]	met
CCGCACUUCAAGCAAUGGGUC [Fam1B.1 aminoacylation ribozyme variant]	not met
CUGCUUCAUACAAUCGGUCUG [Fam1A.1 aminoacylation ribozyme variant]	not met
CCACACUUCAACCCAUCGGUC [Fam1B.1 aminoacylation ribozyme variant]	not met
CCAAAGUUCAAGCAAUCGGUC [Fam1B.1 aminoacylation ribozyme variant]	not met
AUUCACCUAGGCAAUCGGGUG [Fam2.2 aminoacylation ribozyme variant]	met
AUUCACUUAGUUCAUCGGGUG [Fam2.2 aminoacylation ribozyme variant]	met
CAGUUUGCUAAUAGUCGCAAG [Fam3.1 aminoacylation ribozyme variant]	not met
CCACACUAAAAGCAAUCGGUC [Fam1B.1 aminoacylation ribozyme variant]	not met
AUUGCCCUGGGCAUCGAGUGA [Fam2.1 aminoacylation ribozyme variant]	met
AUUCAUCUAGAUCAUCGGGUG [Fam2.2 aminoacylation ribozyme variant]	met
AUUACCUUGCUCAUCGAGUGA [Fam2.1 aminoacylation ribozyme variant]	not met
CCAGUCUUCAAGCAAUCGGUC [Fam1B.1 aminoacylation ribozyme variant]	not met
CUACUUCGAACGAUCGGUCUG [Fam1A.1 aminoacylation ribozyme variant]	not met
AUUACGCUGGUCAUCGAGGGA [Fam2.1 aminoacylation ribozyme variant]	not met

The origin of these recorded values is the supplement of paper PMC9233669.
